ASSAY NAME: qHTS of pediatric cancer cell lines to identify multiple opportunities for drug repurposing: Primary screen for control Hh wild type fibroblast cells (AID 1347106); note: nearly all actives have a fitted effect of over 55% in size
COND: Hh wild-type fibroblast viability, CellTiter-Glo luminescence, 48 h; series mostly up to 46 µM
Results filed as inconclusive are left out. Calls of active or inactive are those of the source. Calls come from the whole dose curve; as a rule, active = well fitted cell-killing curve with a large enough effect; inconclusive = small, poorly fitted or top-dose-only effect; inactive = flat fitted curve, though single readings scatter.
Outcomes: T = active, F = inactive

>>> class_name("O=C(O)c1cc(=O)[nH]c(=O)[nH]1")
"F"
>>> class_name("CCCCS(=N)(=O)CCC(N)C(=O)O (centres undefined)")
"F"
>>> class_name("OC(Cn1cncn1)(Cn1cncn1)c1ccc(F)cc1F")
"F"
>>> class_name("NC(=O)c1ccc2[nH]ccc2c1")
"F"
>>> class_name("CCC(=O)O[C@]1(C(=O)CCl)[C@@H](C)C[C@H]2[C@@H]3CCC4=CC(=O)C=C[C@]4(C)[C@@]3(F)[C@@H](O)C[C@@]21C")
"F"
>>> class_name("Clc1ccccc1CN1CCc2sccc2C1")
"F"
>>> class_name("CCOC(=O)c1ccc(OC(=O)CCCCCN=C(N)N)cc1")
"F"
>>> class_name("Cc1cccc(Nc2ccncc2S(=O)(=O)NC(=O)NC(C)C)c1")
"F"
>>> class_name("Nc1nc(N)nc(-c2cc(Cl)ccc2Cl)n1")
"F"
>>> class_name("CCCOc1ccc(C(=O)OCCN(CC)CC)cc1N")
"F"
>>> class_name("COc1c(N2CCNC(C)C2)c(F)cc2c(=O)c(C(=O)O)cn(C3CC3)c12 (centres undefined)")
"F"
>>> class_name("COC(c1ccccc1)(c1ccccc1)[C@H](Oc1nc(C)cc(C)n1)C(=O)O")
"F"
>>> class_name("CCOC(=O)[C@H](CCc1ccccc1)N[C@H]1CS[C@H](c2cccs2)CN(CC(=O)O)C1=O")
"F"
>>> class_name("O=c1cc(O)c(Cl)c[nH]1")
"F"
>>> class_name("Oc1c(Cl)cc(Cl)c2cccnc12")
"F"
>>> class_name("CCC(=O)O[C@]1(C(=O)SCF)[C@H](C)C[C@H]2[C@@H]3C[C@H](F)C4=CC(=O)C=C[C@]4(C)[C@@]3(F)[C@@H](O)C[C@@]21C")
"F"
>>> class_name("CC(C)(Sc1cc(C(C)(C)C)c(O)c(C(C)(C)C)c1)Sc1cc(C(C)(C)C)c(O)c(C(C)(C)C)c1")
"F"
>>> class_name("S=P(N1CC1)(N1CC1)N1CC1")
"F"
>>> class_name("CC(C)OC(=O)C(C(=O)OC(C)C)=C1SC=CS1")
"F"
>>> class_name("CCCCOc1ccc(CC(=O)NO)cc1")
"F"
>>> class_name("C1CCC(C(CC2CCCCN2)C2CCCCC2)CC1 (centres undefined)")
"F"
>>> class_name("NCCCC(O)(P(=O)(O)O)P(=O)(O)O")
"F"
>>> class_name("Cc1ncc([N+](=O)[O-])n1CCO")
"F"
>>> class_name("NC(N)=NC(N)=NCCc1ccccc1")
"F"
>>> class_name("CCCN[C@H]1CCc2nc(N)sc2C1")
"F"
>>> class_name("O=C(NCC1CN(c2ccc(N3CCOCC3=O)cc2)C(=O)O1)c1ccc(Cl)s1 (centres undefined)")
"F"
>>> class_name("COc1ccc(C(=O)CC(=O)c2ccc(C(C)(C)C)cc2)cc1")
"F"
>>> class_name("CN(C)CCc1c[nH]c2ccc(C[C@H]3COC(=O)N3)cc12")
"F"
>>> class_name("COc1ncnc(NS(=O)(=O)c2ccc(N)cc2)c1OC")
"F"
>>> class_name("CN1CCN(c2c(F)cc3c(=O)c(C(=O)O)cn(CCF)c3c2F)CC1")
"F"
>>> class_name("COc1cc2nc(N3CCCN(C)CC3)nc(NC3CCN(Cc4ccccc4)CC3)c2cc1OC")
"T"
>>> class_name("Cc1cccc(N(C)C(=S)Oc2ccc3ccccc3c2)c1")
"F"
>>> class_name("COc1cc([C@@H]2c3cc4c(cc3[C@H](O)[C@H]3COC(=O)[C@H]23)OCO4)cc(OC)c1OC")
"F"
>>> class_name("CCN(CC)CC#CCOC(=O)C(O)(c1ccccc1)C1CCCCC1 (centres undefined)")
"F"
>>> class_name("CC(N)C12CC3CC(CC(C3)C1)C2 (centres undefined)")
"F"
>>> class_name("Cn1nnc2c(C(N)=O)ncn2c1=O")
"F"
>>> class_name("COc1cc(NS(=O)(=O)c2ccc(N)cc2)nc(OC)n1")
"F"
>>> class_name("O[C@@H](CNC[C@H](O)[C@H]1CCc2cc(F)ccc2O1)[C@@H]1CCc2cc(F)ccc2O1")
"F"
>>> class_name("Nc1ccc(S(=O)(=O)Nc2ccccn2)cc1")
"F"
>>> class_name("O=C(O)CSCC(=O)NC1CCSC1=O (centres undefined)")
"F"
>>> class_name("COc1cccc(N(C)C(=S)Oc2ccc3c(c2)CCCC3)n1")
"F"
>>> class_name("CC(C)NCC(O)c1ccc(NS(C)(=O)=O)cc1 (centres undefined)")
"F"
>>> class_name("C[C@@H](NCCCc1cccc(C(F)(F)F)c1)c1cccc2ccccc12")
"F"
>>> class_name("COC(=O)Nc1nc2ccc(Sc3ccccc3)cc2[nH]1")
"F"
>>> class_name("Nc1nc(=S)c2[nH]cnc2[nH]1")
"F"
>>> class_name("CC(=O)Oc1ccccc1C(=O)Nc1ncc([N+](=O)[O-])s1")
"F"
>>> class_name("CN(CCOc1ccc(CC2SC(=O)NC2=O)cc1)c1ccccn1 (centres undefined)")
"F"
>>> class_name("CCOCC(O)COc1ccc(NC(=O)CC[S+](C)C)cc1 (centres undefined)")
"F"
>>> class_name("CCN(CC)CCn1c(=O)c(Cc2ccc(OC)cc2)nc2ccccc21")
"F"

====

ASSAY NAME: Quantitative High-Throughput drug screen in 47 multiple myeloma cell lines against the NCATS MIPE library collection: Delta47_JCRB cell viability assay (AID 1918925; note: nearly all actives have a fitted effect of over 45% in size)
COND: Delta47 myeloma viability, CellTiter-Glo ATP, 48 h; series mostly up to 45.8 µM
Inconclusive results are not listed. The source made the active and inactive calls. The call rests on the fitted dose curve; in most records, active means well fitted cell-killing curve with a large enough effect; inconclusive means small, poorly fitted or top-dose-only effect, or effect the other way; inactive means no such curve, though single readings can be large or run the other way.
Outcomes: active, inactive

>>> class_name("CC(C)(C)NC(=O)[C@H]1CC[C@H]2[C@@H]3CC[C@H]4NC(=O)C=C[C@]4(C)[C@H]3CC[C@]12C")
"active"
>>> class_name("CCOc1cc(N)c(Cl)cc1C(=O)NCC1CN(Cc2ccc(F)cc2)CCO1 (centres undefined)")
"inactive"
>>> class_name("CCCN[C@H]1CCc2nc(N)sc2C1")
"inactive"
>>> class_name("CCCc1cc(C(N)=S)ccn1")
"inactive"
>>> class_name("CCN(CC)CC#CCOC(=O)C(O)(c1ccccc1)C1CCCCC1 (centres undefined)")
"inactive"
>>> class_name("COc1cc([C@@H]2c3cc4c(cc3[C@H](O)[C@H]3COC(=O)[C@H]23)OCO4)cc(OC)c1OC")
"inactive"
>>> class_name("Cc1nnc(C(=O)NC(C)(C)c2nc(C(=O)NCc3ccc(F)cc3)c(O)c(=O)n2C)o1")
"inactive"
>>> class_name("COc1cc2nc(N3CCCN(C)CC3)nc(NC3CCN(Cc4ccccc4)CC3)c2cc1OC")
"active"
>>> class_name("CC(=O)[C@H]1CC[C@H]2[C@@H]3CCC4=CC(=O)CC[C@]4(C)[C@H]3CC[C@]12C")
"inactive"
>>> class_name("O=C(O)C1CCCN(CCC=C(c2ccccc2)c2ccccc2)C1 (centres undefined)")
"inactive"
>>> class_name("Nc1nc(=S)c2[nH]cnc2[nH]1")
"active"
>>> class_name("NC(N)=NC(N)=NCCc1ccccc1")
"active"
>>> class_name("Cc1cc(NS(=O)(=O)c2ccc(N)cc2)no1")
"inactive"
>>> class_name("Nc1nc(F)nc2c1ncn2[C@@H]1O[C@H](CO)[C@@H](O)[C@@H]1O")
"active"
>>> class_name("Cc1cccc(N(C)C(=S)Oc2ccc3ccccc3c2)c1")
"inactive"
>>> class_name("CNCC[C@H](Oc1cccc2ccccc12)c1cccs1")
"active"
>>> class_name("CCn1cc(C(=O)O)c(=O)c2cc(F)c(N3CCNCC3)cc21")
"inactive"
>>> class_name("CC(C)C[C@H](NC(=O)[C@H](CCc1ccccc1)NC(=O)CN1CCOCC1)C(=O)N[C@@H](Cc1ccccc1)C(=O)N[C@@H](CC(C)C)C(=O)[C@@]1(C)CO1")
"active"
>>> class_name("CN(Cc1cc(Br)cc(Br)c1N)C1CCCCC1")
"inactive"
>>> class_name("Cc1ccnc2c1NC(=O)c1cccnc1N2C1CC1")
"active"
>>> class_name("CO[C@@H]1[C@@H](OC(N)=O)[C@@H](O)[C@H](Oc2ccc3c(O)c(NC(=O)c4ccc(O)c(CC=C(C)C)c4)c(=O)oc3c2C)OC1(C)C")
"active"
>>> class_name("CCN1CCCC1CNC(=O)c1cc(S(N)(=O)=O)ccc1OC (centres undefined)")
"inactive"
>>> class_name("CN1CCN(c2c(F)cc3c(=O)c(C(=O)O)cn(CCF)c3c2F)CC1")
"inactive"
>>> class_name("COC(c1ccccc1)(c1ccccc1)[C@H](Oc1nc(C)cc(C)n1)C(=O)O")
"inactive"
>>> class_name("O=P(O)(O)C(O)(Cc1cccnc1)P(=O)(O)O")
"inactive"
>>> class_name("CCn1cc(C(=O)O)c(=O)c2cc(F)c(N3CCN(C)CC3)cc21")
"inactive"
>>> class_name("NC(=O)c1cccc(N)c1")
"inactive"
>>> class_name("CC(C)NCC(O)c1ccc(NS(C)(=O)=O)cc1 (centres undefined)")
"inactive"
>>> class_name("CC(=O)[C@H]1CC[C@H]2[C@@H]3CC=C4C[C@@H](O)CC[C@]4(C)[C@H]3CC[C@]12C")
"inactive"
>>> class_name("CN1CCN(c2c(F)cc3c(=O)c(C(=O)O)cn4c3c2OCN4C)CC1")
"inactive"
>>> class_name("COc1cc(NS(=O)(=O)c2ccc(N)cc2)nc(OC)n1")
"inactive"
>>> class_name("N[C@@H](C(=O)N[C@@H]1C(=O)N2C(C(=O)O)=C(Cl)CS[C@H]12)c1ccccc1")
"inactive"
>>> class_name("COc1ccc2cc3[n+](cc2c1OC)CCc1cc2c(cc1-3)OCO2")
"active"
>>> class_name("Cc1ncc([N+](=O)[O-])n1CCO")
"inactive"
>>> class_name("NCCCC(O)(P(=O)(O)O)P(=O)(O)O")
"inactive"
>>> class_name("CCOCC(O)COc1ccc(NC(=O)CC[S+](C)C)cc1 (centres undefined)")
"inactive"
>>> class_name("CN(C)CCc1c[nH]c2ccc(C[C@H]3COC(=O)N3)cc12")
"inactive"
>>> class_name("CC(=O)Oc1ccccc1C(=O)Nc1ncc([N+](=O)[O-])s1")
"active"
>>> class_name("NNC(=O)c1ccncc1")
"inactive"
>>> class_name("COC(=O)Nc1nc2ccc(S(=O)c3ccccc3)cc2[nH]1 (centres undefined)")
"active"
>>> class_name("O[C@@H](CNC[C@H](O)[C@H]1CCc2cc(F)ccc2O1)[C@@H]1CCc2cc(F)ccc2O1")
"active"
>>> class_name("CCN(C)C(=O)Oc1cccc([C@H](C)N(C)C)c1")
"inactive"
>>> class_name("C[C@@H](NCCCc1cccc(C(F)(F)F)c1)c1cccc2ccccc12")
"inactive"
>>> class_name("CC(C)(C)C(=O)OCOP(=O)(COCCn1cnc2c(N)ncnc21)OCOC(=O)C(C)(C)C")
"active"
